system: IMR-32; experiment: one-week survival assay, IMR-32; type: cell-based; conditions: Homo sapiens, 168 h, ALK WT, MYCN Amp, treated for one week
readout-kind: pIC50
Scale explanation: pIC50 corresponds to minus log10 of a concentration expressed in moles per litre.

Inquiry: Tell us which pIC50 value is on record for CNC(=O)c1ccccc1Nc1nc(Nc2ccc3c(c2OC)CCC[C@H](N2CCN(CCO)CC2)C3)ncc1Cl
Reply text: 5.66
